# experiment.summary: Single-dose plasma PK of Compound A in subjects with OSA
# Assay type: in vivo, human
# condition: human, intravenous; 44 mg single dose, subjects with OSA, plasma, mean (PK set)
# Procedure: The treatment periods began on Day 1 of Treatment Period 1 (Study Day 1) with Treatment Periods 2 and 3 commencing on Study Days 3 and 5, respectively. […] On Day 1 of Treatment Period 1, all eligible subjects were randomized and received the first dose of study drug. […] Blood samples for determination of Compound A plasma concentrations were collected predose and at specified time points postdose, Safety assessments were recorded. […]
parameter: AUC(0-t) (ng·h/mL)
Kindly answer with a numeric value in ng·h/mL, unit omitted.

// query AUC(0-t) value for entry COC(=O)N1CCC[C@H](NS(C)(=O)=O)[C@@H]1CO[C@H]1CC[C@@H](c2ccccc2)CC1 [Compound A]
884

====

# experiment.summary: Multiple-dose plasma PK of IV Compound A in patients with NT2
# Type: in vivo, human
# condition: human, plasma, intravenous, 112 mg, Cmpd A 112 mg; Day 1; read-out: Cmax Geo mean
parameter: Cmax (ng/mL)
Only the number, expressed in ng/mL, is required.

I'd like to know its Cmax. The compound in question is COC(=O)N1CCC[C@H](NS(C)(=O)=O)[C@@H]1CO[C@H]1CC[C@@H](c2ccccc2)CC1
171

====

# experiment.summary: Single-dose plasma PK of Compound A in subjects with OSA
# Assay type: in vivo, human
# condition: human, intravenous; 112 mg single dose, subjects with OSA, plasma, mean (PK set)
parameter: AUC(0-t) (ng·h/mL)
Note: unit ng·h/mL is implicit; provide only the numeric part.

Entry COC(=O)N1CCC[C@H](NS(C)(=O)=O)[C@@H]1CO[C@H]1CC[C@@H](c2ccccc2)CC1 has what AUC(0-t)?
2040

====

# experiment.summary: Multiple-dose plasma PK of IV Compound A in patients with NT2
# Type: in vivo, human
# condition: human, plasma, intravenous, 44 mg, Cmpd A 44 mg; Day 1; read-out: Vz Mean
parameter: Vd (L)
Give the value, in units of L, as a plain number.

For COC(=O)N1CCC[C@H](NS(C)(=O)=O)[C@@H]1CO[C@H]1CC[C@@H](c2ccccc2)CC1 , what is its reported Vd?
288

====

# experiment.summary: Plasma PK of Compound A after a single 9-hour IV infusion in sleep-deprived healthy male subjects
# Assay type: in vivo, human
# condition: male, human, plasma, iv, 44 mg, 44 mg [LD] single 9-hour IV infusion; read-out: AUClast (Mean)
parameter: AUC(0-t) (ng·h/mL)
Write the value in ng·h/mL as a bare number.

Endpoint output: AUC(0-t) of COC(=O)N1CCC[C@H](NS(C)(=O)=O)[C@@H]1CO[C@H]1CC[C@@H](c2ccccc2)CC1 . Value?
940

====

# experiment.summary: Multiple-dose plasma PK of IV Compound A in patients with NT2
# Type: in vivo, human
# condition: human, plasma, intravenous, 44 mg, Cmpd A 44 mg; 4 Hours Postdose at Day 1
parameter: concentration at 4 h (ng/mL)
Form entry: value (ng/mL) — number only.

Return reported concentration at 4 h; argument: COC(=O)N1CCC[C@H](NS(C)(=O)=O)[C@@H]1CO[C@H]1CC[C@@H](c2ccccc2)CC1
74.1
